Tested on: HL-60
protocolNotes: NCI tumour cell line growth inhibition, 48 h
Activity calls are given as the source filed them. No stated cut-off is given here; in the data, active = GI50 up to about 1.1 µM and inactive = higher.
Items are presented alongside their recorded GI50.
measurementLabel: GI50

INSERT INTO measurements (smilesentry, observedvalue) VALUES
  ('Cc1ccc2c(O)cc(-c3ccc(C)s3)nc2n1', '77.5 nM (active)'),
  ('Nc1nc2cc(COc3ccc(C(=O)O)cc3)ccc2nc1-c1ccccc1', '> 10000 nM (inactive)'),
  ('COc1cccc2[s+]snc12', '23900 nM (inactive)'),
  ('O=C(Nc1ccccc1F)c1cc2ccc(O)cc2o/c1=N\c1cccc(C(F)(F)F)c1', '1660 nM (inactive)'),
  ('Clc1ccc2c(c1)N(CCCN1CCCC13CCCCC3)c1ccccc1S2', '152 nM (active)'),
  ('C=C1Cc2cc(OC)c(OC)c(OC)c2-c2ccc(SC)c(=O)cc21', '< 10 nM (active)');

====

Test system: M14
protocolNotes: NCI tumour cell line growth inhibition, 48 h
The source made the active and inactive calls. No stated cut-off is given here; in the data, active = GI50 up to about 1.1 µM and inactive = higher.
measurementLabel: GI50

INSERT INTO assay_data (compound, observedvalue) VALUES
  ('COC(=O)[C@H](CCSC)NC(=O)c1ccc(CNC(=O)/C=C/c2cccc(Oc3ccccc3)c2)cc1', '13.5 µM (inactive)'),
  ('Cc1cnc2sn(-c3ccc([N+](=O)[O-])cc3)c(=O)c2c1', '> 100 µM (inactive)'),
  ('COC(=O)c1c(C)cccc1C1CN=NC12Cc1ccc(C)c(C)c1C2=O (stereo not drawn)', '30.5 µM (inactive)');

====

System: OVCAR-4
protocolNotes: NCI tumour cell line growth inhibition, 48 h
Activity calls are given as the source filed them. No stated cut-off is given here; in the data, active = GI50 up to about 1.1 µM and inactive = higher.
Items are presented alongside their recorded GI50.
measurementLabel: GI50

INSERT INTO measurements (compound, targetsystem, observedvalue) VALUES
  ('COC(=O)C12CCC(CC1=O)C2(C)C (stereo unspecified)', 'OVCAR-4', '> 100 µM (inactive)'),
  ('O=c1[nH]c(=O)n(C2CC(O)C(CO)O2)c2nc3cc4ccccc4cc3nc12 (stereo unspecified)', 'OVCAR-4', '> 100 µM (inactive)'),
  ('O=C(OCC1CCCN2CCCCC12)c1ccncc1 (stereo unspecified)', 'OVCAR-4', '> 100 µM (inactive)'),
  ('CC1CN=C(N(C(=O)Nc2ccc(Cl)cc2)c2cccc(Cl)c2)S1 (stereo unspecified)', 'OVCAR-4', '46.3 µM (inactive)'),
  ('c1ccc2c(c1)nc1n2CCCn2ccnc2-1', 'OVCAR-4', '> 100 µM (inactive)'),
  ('C=C1CC[C@@]2(OC1)OC1C[C@H]3[C@@H]4CC=C5C[C@@H](O)CC(OC6OCC(OC(=O)[C@@H](O)[C@@H](C)CC)C(OC(C)=O)C6OC6OC(C)C(O)C(O)C6O)[C@]5(C)[C@H]4CC[C@]3(C)C1[C@@H]2C (stereo partly specified)', 'OVCAR-4', '2.81 µM (inactive)'),
  ('CCOC(=O)/C(C(=S)Nc1ccccc1)=C(/N)N1CCCC1', 'OVCAR-4', '> 100 µM (inactive)'),
  ('COc1cc(-c2c(C)c(C)nc(OC)c2C#N)cc(OC)c1OC', 'OVCAR-4', '61 µM (inactive)'),
  ('COC1/C=C\OC2(C)Oc3c(C)c(O)c4c(O)c(c(/C=N\OCCCc5ccccc5)c(O)c4c3C2=O)NC(=O)/C(C)=C\C=C/C(C)C(O)C(C)C(O)C(C)C(OC(C)=O)C1C (stereo unspecified)', 'OVCAR-4', '3.08 µM (inactive)'),
  ('CC1(C)C(N2CCOCC2)CS1(=O)=O (stereo unspecified)', 'OVCAR-4', '> 10 µM (inactive)'),
  ('CCCCCc1c(CCCC)c(=O)[nH]c2cc(CNCC(OC)OC)ccc12', 'OVCAR-4', '14.7 µM (inactive)'),
  ('COC(=O)[C@H](CCSC)NC(=O)c1ccc(CNC(=O)/C=C/c2cccc(Oc3ccccc3)c2)cc1', 'OVCAR-4', '33.6 µM (inactive)'),
  ('Cc1cc(N(CCOS(C)(=O)=O)CCOS(C)(=O)=O)ccc1C=O', 'OVCAR-4', '18.2 µM (inactive)'),
  ('C=C/C(C)=C\CC1[C@](C)(O)CC[C@H]2C(C)(C)C(=O)CC[C@]12C (stereo partly specified)', 'OVCAR-4', '54.3 µM (inactive)'),
  ('OC1(c2cc3ccccc3s2)CCCCC1', 'OVCAR-4', '39.2 µM (inactive)'),
  ('C=C1Cc2cc(OC)c(OC)c(OC)c2-c2ccc(SC)c(=O)cc21', 'OVCAR-4', '4.26 µM (inactive)'),
  ('Nc1nc(Cl)cc(NCC2(CO)CCC2)n1', 'OVCAR-4', '> 100 µM (inactive)'),
  ('O=C1NC(=O)C2C(=O)NC(=O)C1C2(c1ccccc1)c1cc[nH]c1 (stereo unspecified)', 'OVCAR-4', '> 100 µM (inactive)'),
  ('CCCCCCCCCCCCCCCCCCNc1ccn(C2OC(COP(=O)(O)OCC3CCC(n4cnc5c(=O)[nH]cnc54)O3)C(O)C2O)c(=O)n1 (stereo unspecified)', 'OVCAR-4', '> 100 µM (inactive)'),
  ('COc1cc2c(c(OC)c1OC)-c1c(cc3c(c1OC)OCO3)CC(C)C(C)(O)C2OC(=O)c1ccccc1 (stereo unspecified)', 'OVCAR-4', '35.3 µM (inactive)'),
  ('CSc1cc(Cl)c(C)cc1S(=O)(=O)NC(=O)NNc1ccc(Cl)cc1', 'OVCAR-4', '> 100 µM (inactive)');

====

System: SK-OV-3
protocolNotes: NCI tumour cell line growth inhibition, 48 h
Calls of active or inactive are those of the source. No stated cut-off is given here; in the data, active = GI50 up to about 1.1 µM and inactive = higher.
measurementLabel: GI50

INSERT INTO measurements (compound, observedvalue) VALUES
  ('Cc1cc(N(CCC#N)CCC#N)ccc1C(/N=N\c1ccc(C(=O)O)cc1)=N\NC(=O)c1cc(Cl)ccc1O', '28.2 µM (inactive)'),
  ('CCOC(=O)N1CCN(c2ccc3ccc(N)nc3n2)CC1', '> 100 µM (inactive)'),
  ('Cc1cc(N(CCC#N)CCC#N)ccc1/C=C1N=C(/C=C\c2ccccc2)N(NC(=O)CC(=O)Nc2ccccc2Cl)C\1=O', '> 100 µM (inactive)'),
  ('CC1(c2sccc2Cl)CC(c2sccc2Cl)=C(C#N)C(=C(C#N)C#N)N1 (stereo not drawn)', '17.5 µM (inactive)'),
  ('CC1=NN(c2cccc(Cl)c2)C2(C1=Cc1ccc(N(C)C)cc1)C(Cl)C(=O)N2c1nc2ccccc2s1 (stereo not drawn)', '34.4 µM (inactive)'),
  ('c1ccc2c(c1)Cn1c-2nc2ccccc21', '> 100 µM (inactive)'),
  ('Oc1cc(-c2cccc(C(F)(F)F)c2)nc2cc3c(cc12)OCO3', '2.26 µM (inactive)'),
  ('CCOC(=O)C1=C(OC(OCC)C(CC)[Se]c2ccccc2)CCC1 (stereo not drawn)', '92 µM (inactive)');

====

Tested on: MDA-N
protocolNotes: NCI tumour cell line growth inhibition, 48 h
The source made the active and inactive calls. Cut-off read from the data, not from the text of the source: active = GI50 up to about 1.1 µM and inactive = higher.
measurementLabel: GI50

INSERT INTO assay_data (molecule, observedvalue) VALUES
  ('CCCCC1C=Cn2c(=O)oc3c(OC(C)C)c(OC(C)C)c(O)c1c32 (stereo unspecified)', '20.9 µM (inactive)'),
  ('CC1C(OS(=O)(=O)c2ccc3nc(S)sc3c2)CC2C3(C)CCC2(C(C)C(=O)O)C(O)C13 (stereo unspecified)', '22.4 µM (inactive)'),
  ('CC(NC1=NCCO1)c1ccccc1Cl (stereo unspecified)', '> 100 µM (inactive)'),
  ('COC(=O)CNC(=O)c1cc(C)cc2c1Oc1c(cc(C)cc1C(=O)NCC(=O)OC)S2', '> 100 µM (inactive)'),
  ('O=C1c2c(F)c(F)c(F)c(F)c2SC2=NCCN12', '3.45 µM (inactive)'),
  ('Cc1[nH]n(C2=NCCN2)c(=O)c1Cc1ccccc1', '> 100 µM (inactive)');

====

Tested on: OVCAR-8
protocolNotes: NCI tumour cell line growth inhibition, 48 h
Calls of active or inactive are those of the source. Cut-off read from the data, not from the text of the source: active = GI50 up to about 1.1 µM and inactive = higher.
Items are presented alongside their recorded GI50.
measurementLabel: GI50

INSERT INTO measurements (molecule, targetsystem, measurementlabel, observedvalue) VALUES
  ('C=CCN1C(=O)C/C(=C2/CCC(=O)N2CC=C)C1=O', 'OVCAR-8', 'GI50', '> 100 µM (inactive)'),
  ('Cc1ccc(-c2c(C#N)c(-c3ccccc3)c(C#N)c(=O)n2NS(=O)(=O)c2ccc(C)cc2)cc1', 'OVCAR-8', 'GI50', '52.7 µM (inactive)'),
  ('Nc1c(S(=O)(=O)O)cc2cc(S(=O)(=O)O)ccc2c1/N=N/c1ccc(-c2ccc(/N=N/c3c(N)c(S(=O)(=O)O)cc4cc(S(=O)(=O)O)ccc34)c(S(=O)(=O)O)c2)cc1', 'OVCAR-8', 'GI50', '> 100 µM (inactive)'),
  ('Cn1c(-c2cccs2)cc(-c2cccs2)c1-c1ccco1', 'OVCAR-8', 'GI50', '> 100 µM (inactive)'),
  ('CCOC(=O)c1c(SCCN2CCCC2)n(-c2ccccc2)c(=S)n(-c2ccccc2)c1=O', 'OVCAR-8', 'GI50', '1.95 µM (inactive)'),
  ('O=C(OCC1CCCN2CCCCC12)c1ccncc1 (stereo unspecified)', 'OVCAR-8', 'GI50', '> 100 µM (inactive)'),
  ('Cc1ccc(C)n1-n1c(-c2ccccc2)n[nH]c1=O', 'OVCAR-8', 'GI50', '> 100 µM (inactive)'),
  ('CNc1ncnc2c1cnn2COCC(O)CO (stereo unspecified)', 'OVCAR-8', 'GI50', '> 100 µM (inactive)'),
  ('OCC1OC(O[C@H]2CN3[C@H](O)[C@@H](O)[C@H](O)[C@H]3C2O)C(O)C(O)C1O (stereo partly specified)', 'OVCAR-8', 'GI50', '> 100 µM (inactive)'),
  ('CC(=O)NNc1nc(C)c(C(=O)NNC(=O)C(=O)Nc2ccc([N+](=O)[O-])cc2[N+](=O)[O-])s1', 'OVCAR-8', 'GI50', '> 100 µM (inactive)'),
  ('CCOc1ccc(N2C(=O)NC3(c4ccccc4)N(C)C(=O)N(C)C23c2ccccc2)cc1 (stereo unspecified)', 'OVCAR-8', 'GI50', '61.1 µM (inactive)'),
  ('O=[N+]([O-])c1cccc(-c2ncc3c(n2)-c2ccccc2C3)c1', 'OVCAR-8', 'GI50', '> 100 µM (inactive)'),
  ('C/C(=N\Nc1ccc([N+](=O)[O-])cc1[N+](=O)[O-])c1ccc2ccccc2n1', 'OVCAR-8', 'GI50', '47.3 µM (inactive)'),
  ('COC(=O)C1(C(=O)OC)CC(=O)c2c(OC(=O)c3cccc(OC)c3C#N)ccc(OC(=O)c3cccc(OC)c3C#N)c2C1', 'OVCAR-8', 'GI50', '> 100 µM (inactive)'),
  ('Cc1cc(OCc2nnc3sc(NC(=O)c4ccccc4)nn23)ccc1Cl', 'OVCAR-8', 'GI50', '20.7 µM (inactive)'),
  ('COc1cccc2[s+]snc12', 'OVCAR-8', 'GI50', '26.9 µM (inactive)'),
  ('O=C(O)[C@@H]1OCCOCCO[C@@H](C(=O)O)[C@H](C(=O)O)OCCOCCO[C@H]1C(=O)O', 'OVCAR-8', 'GI50', '> 100 µM (inactive)'),
  ('Cc1cc2c(=O)cc(-c3ccncc3)oc2c(C(N)=O)c1C', 'OVCAR-8', 'GI50', '> 100 µM (inactive)'),
  ('COc1cc2c(cc1C[C@H]1[C@@H]3C[C@H]4c5c(c6ccccc6n5C)C[C@@H]([C@@H]3CO[C@]1(C)OC(C)=O)N4C)c1c(n2C)C2C[C@H]3C(C(C)=O)=COC[C@H]3[C@H](C1)N2C', 'OVCAR-8', 'GI50', '3.66 µM (inactive)'),
  ('O=C1c2c(F)c(F)c(F)c(F)c2SC2=NCCN12', 'OVCAR-8', 'GI50', '11.5 µM (inactive)'),
  ('C/C(=N\NC(N)=S)c1ccccn1.OB(O)c1ccccc1', 'OVCAR-8', 'GI50', '3.63 µM (inactive)'),
  ('CC(C)N1CSC(=S)N(Cc2ccccc2)C1', 'OVCAR-8', 'GI50', '4.75 µM (inactive)'),
  ('CCCN1C(=O)/C(=C\c2ccc(OC)c(OC)c2)S/C1=N\c1ccccc1', 'OVCAR-8', 'GI50', '> 100 µM (inactive)'),
  ('COC(=O)c1c(C)cccc1C1CN=NC12Cc1ccc(C)c(C)c1C2=O (stereo unspecified)', 'OVCAR-8', 'GI50', '27.1 µM (inactive)'),
  ('O=C(NCc1cccnc1)C(=O)NCc1cccnc1', 'OVCAR-8', 'GI50', '> 100 µM (inactive)'),
  ('CCOC(=O)C1C(=O)C=C(c2cc(C)ccc2O)CC1c1cccc(Br)c1 (stereo unspecified)', 'OVCAR-8', 'GI50', '30 µM (inactive)'),
  ('NC(=S)NS(=O)(=O)c1ccc(Cl)cc1', 'OVCAR-8', 'GI50', '> 100 µM (inactive)'),
  ('CN(CCc1ccc(Cl)c(Cl)c1)[C@H]1CCCC[C@H]1N1CCCC1', 'OVCAR-8', 'GI50', '> 100 µM (inactive)'),
  ('COc1ccc(C)cc1NC(=S)C#N', 'OVCAR-8', 'GI50', '27.9 µM (inactive)'),
  ('CC1=C(/C(C)=N/NS(=O)(=O)c2ccc(C)cc2)Sc2ccccc2N1', 'OVCAR-8', 'GI50', '> 100 µM (inactive)'),
  ('Cc1cccc(/N=N/C(=N\NC(=O)c2cc(Cl)ccc2O)c2ccc(N(CCC#N)CCC#N)cc2C)c1', 'OVCAR-8', 'GI50', '31.3 µM (inactive)');
